TESTED_SYSTEM: T1, recombinant biotinylated CD71 extracellular domain (Sino Biologics) with an N-terminal 6His tag (human, UniProt P02786 89-760, biotinylated (sites not given))
T1 construct: extracellular domain; also called hCD71; huCD71
T1 sequence (P02786 other isoform, or with tags, fused parts or gaps): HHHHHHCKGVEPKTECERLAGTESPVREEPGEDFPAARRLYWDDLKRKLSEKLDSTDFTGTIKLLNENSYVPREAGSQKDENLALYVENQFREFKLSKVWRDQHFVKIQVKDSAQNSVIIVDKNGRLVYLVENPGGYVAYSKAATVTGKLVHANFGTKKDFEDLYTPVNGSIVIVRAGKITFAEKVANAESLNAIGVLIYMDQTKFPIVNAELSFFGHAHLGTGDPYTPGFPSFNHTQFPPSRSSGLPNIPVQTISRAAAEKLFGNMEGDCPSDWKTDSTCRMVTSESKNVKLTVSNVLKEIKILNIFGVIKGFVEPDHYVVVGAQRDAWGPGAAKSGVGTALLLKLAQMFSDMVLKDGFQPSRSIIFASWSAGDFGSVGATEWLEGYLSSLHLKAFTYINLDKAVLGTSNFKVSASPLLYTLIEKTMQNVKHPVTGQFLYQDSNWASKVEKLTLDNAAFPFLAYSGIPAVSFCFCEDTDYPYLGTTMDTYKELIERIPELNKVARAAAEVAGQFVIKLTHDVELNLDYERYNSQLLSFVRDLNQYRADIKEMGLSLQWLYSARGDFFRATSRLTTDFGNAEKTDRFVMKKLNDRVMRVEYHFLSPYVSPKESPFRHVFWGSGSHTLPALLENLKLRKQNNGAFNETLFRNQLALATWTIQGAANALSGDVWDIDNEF
PROTOCOL_DETAILS: screening ELISA, ratio
Record form. Attribute: hCD71:HSA. Fill in for each entry.
Numbers only.

Solved cases below.
binder="SEQ ID NO 130 (designed binder, FN3 domain) MLPAPKNLVVSRVTEDSARLSWTAPDAAFDSFHIPYVEAEVPGEAIQLHVPGSERSYDLTGLKPGTEYYVEIWGVKGGFYSPPLIAEFTT" measurement_kind=hCD71:HSA numeric_value=239
binder="SEQ ID NO 177 (designed binder, FN3 domain) MLPAPKNLVVSRVTEDSARLSWTAPDAAFDSFFIGYLEPQPPGEAIVLTVPGSERSYDLTGLKPGTEYNVTIQGVKGGRASGPLSAIFTT" measurement_kind=hCD71:HSA numeric_value=1060
binder="SEQ ID NO 107 (designed binder, FN3 domain) MLPAPKNLVVSRVTEDSARLSWTAPDAAFDSFFIQYTESHWVGEAIVLTVPGSERSYDLTGLKPGTEYAVPIEGVKGGDSSTPLSAIFTT" measurement_kind=hCD71:HSA numeric_value=104
binder="SEQ ID NO 83 (designed binder, FN3 domain) MLPAPKNLVVSRVTEDSARLSWTAPDAAFDSFYIYYYESSGTGEAIVLTVPGSERSYDLTGLKPGTEYFVDIGGVKGGSYSLPLSAIFTT" measurement_kind=hCD71:HSA numeric_value=1480
binder="SEQ ID NO 115 (designed binder, FN3 domain) MLPAPKNLVVSRVTEDSARLSWTAPDAAFDSFFIGYLEPQPPGEAIVLTVPGSERSYDLTGLKPGTEYNVTIQGVKGGFPSMPLSAIFTTT" measurement_kind=hCD71:HSA numeric_value=846
binder="SEQ ID NO 244 (designed binder, FN3 domain) MLPAPKNLVVSRVTEDSARLSWTAPDAAFDSFHIDYSEFHLRGEAIVLTVPGSERSYDLTGLKPGTEYLGIFGVKGGEQSGPLSAIFTT" measurement_kind=hCD71:HSA numeric_value=330
binder="SEQ ID NO 125 (designed binder, FN3 domain) MLPAPKNLVVSRVTEDSARLSWTAPDAAFDSFVIEYFEFVGEGEAIVLTVPGSERSYDLTGLKPGTEYDVGIYGVKGGSLSSPLSAIFTT" measurement_kind=hCD71:HSA numeric_value=2220
binder="SEQ ID NO 111 (designed binder, FN3 domain) MLPAPKNLVVSRVTEDSARLSWTAPDAAFDSFWIYYYESVGTGEAIVLTVPGSERSYDLTGLKPGTEYFVDISGVKVGTYSLPLSAIFTT" measurement_kind=hCD71:HSA numeric_value=322
binder="SEQ ID NO 162 (designed binder, FN3 domain) MLPAPKNLVVSRVTEDSARLSWTAPDAAFDSFHIAYEEATTYGEAIFLRVPGSERSYDLTGLKPGTEYDVWIEGVKGGTISGPLSAIFTT" measurement_kind=hCD71:HSA numeric_value=2100
binder="SEQ ID NO 89 (designed binder, FN3 domain) MLPAPKNLVVSRVTEDSARLSWTAPDAAFDSFHISYEETPVVGEAIYLRVPGSERSYDLTGLKPGTEYTVAIHGVKGGRESTPLIAPFTT" measurement_kind=hCD71:HSA numeric_value=1720

For each of the binders below, state hCD71:HSA.
1. SEQ ID NO 218 (designed binder, FN3 domain) MLPAPKNLVVSRVTEDSARLSWTAPDAAFDSFTILYYEMVGEGEAIVLTVPGSERSYDLTGPKPGTEYWVDIYGVKGGGWSRPLSAIFTT
2. SEQ ID NO 110 (designed binder, FN3 domain) MLPAPKNLVVSRVTEDSARLSWTAPDAAFDSFFIHYHEWWEAGEAIVLTVPGSERSYDLTGLKPGTEYLVDIPGVKGGDLSVPLSAIFTT

[71, 89]
